Attribution: patent US12503475B2

- system-under-test: human orexin type 2 receptor (hOX2R) (Homo sapiens, UniProt O43614)
- Construct: expressed in transfected cells
- Sequence (O43614 1-444): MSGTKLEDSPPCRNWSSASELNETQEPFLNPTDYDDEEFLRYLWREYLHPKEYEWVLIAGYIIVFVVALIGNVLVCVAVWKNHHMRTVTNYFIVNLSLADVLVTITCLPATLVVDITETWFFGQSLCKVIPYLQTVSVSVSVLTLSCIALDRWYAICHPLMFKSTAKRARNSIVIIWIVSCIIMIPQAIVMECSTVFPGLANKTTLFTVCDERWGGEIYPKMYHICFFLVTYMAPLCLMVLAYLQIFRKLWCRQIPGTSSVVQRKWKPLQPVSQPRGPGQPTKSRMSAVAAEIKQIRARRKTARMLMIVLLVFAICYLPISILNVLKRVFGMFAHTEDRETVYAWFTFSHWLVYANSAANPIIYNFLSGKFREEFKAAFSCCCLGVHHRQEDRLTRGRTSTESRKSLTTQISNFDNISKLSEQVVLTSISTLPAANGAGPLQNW
- assay-notes: Measurement of orexin type 2 receptor agonist activity (FLIPR calcium fluorescence)
- Assay type: cell-based
- run-parameters: CHO cells expressing hOX2R, FLIPR calcium fluorescence; read-out: hOx2 pEC50 (converted)
endpoint: EC50

For orientation, consider the following solved cases.
[
  {
    "molecule": "COCCN(C)C(=O)N1CC2(CC2)[C@H](NS(C)(=O)=O)[C@@H]1Cc1cccc(-c2ccccc2)c1F",
    "system-under-test": "human orexin type 2 receptor (hOX2R) (Homo sapiens, UniProt O43614)",
    "EC50": "1 to 10 nM"
  },
  {
    "molecule": "CC(F)(F)C(=O)N1CC2(CC2)C(NS(C)(=O)=O)C1Cc1cccc(-c2ccccc2)c1 (racemic)",
    "system-under-test": "human orexin type 2 receptor (hOX2R) (Homo sapiens, UniProt O43614)",
    "EC50": "100 to 1000 nM"
  },
  {
    "molecule": "O=C(NCC1(F)CC1)N1CC2(CC2)[C@H](NS(=O)(=O)C(F)F)[C@@H]1Cc1cc(F)cc(-c2ccccc2)c1F",
    "system-under-test": "human orexin type 2 receptor (hOX2R) (Homo sapiens, UniProt O43614)",
    "EC50": "1 to 10 nM"
  },
  {
    "molecule": "COc1c(C[C@H]2[C@@H](NS(C)(=O)=O)C3(CC3)CN2C(=O)NCC(F)(F)F)cccc1-c1ccccc1",
    "system-under-test": "human orexin type 2 receptor (hOX2R) (Homo sapiens, UniProt O43614)",
    "EC50": "10 to 100 nM"
  }
]

# map each molecule to its EC50
1. O=C([C@H]1CCO1)N1CC2(CC2)[C@H](NS(=O)(=O)C2COC2)[C@@H]1Cc1cccc(-c2ccccc2)c1
2. CS(=O)(=O)N[C@@H]1[C@H](Cc2cccc(-c3ccccc3)c2F)N(C(=O)NCCC#N)CC12CC2
3. N#CC1(C(=O)N2CC3(CC3)[C@H](NS(=O)(=O)CF)[C@@H]2Cc2cccc(-c3cc(F)cc(F)c3)c2F)CCC1
4. CS(=O)(=O)N[C@@H]1[C@H](Cc2cccc(-c3ccccc3)c2F)N(C(=O)[C@H](O)C(F)F)CC12CC2
5. CCS(=O)(=O)N[C@@H]1[C@H](Cc2cccc(-c3ccccc3)c2)N(C(=O)[C@H](O)C(F)(F)F)CC12CC2
6. CC(C#N)C(=O)N1CC2(CC2)[C@H](NS(C)(=O)=O)[C@@H]1Cc1cccc(-c2ccccc2)c1F (stereo partly drawn)
7. CS(=O)(=O)NC1C(Cc2cccc(-c3ccccc3)c2F)N(C(=O)N2CCC2)CC12CC2 (racemic)

["10 to 100 nM", "1 to 10 nM", "1 to 10 nM", "10 to 100 nM", "1 to 10 nM", "1 to 10 nM", "1 to 10 nM"]

* * *

- system-under-test: human orexin type 2 receptor (hOX2R) (Homo sapiens, UniProt O43614)
- Construct: expressed in transfected cells
- Sequence (O43614 1-444): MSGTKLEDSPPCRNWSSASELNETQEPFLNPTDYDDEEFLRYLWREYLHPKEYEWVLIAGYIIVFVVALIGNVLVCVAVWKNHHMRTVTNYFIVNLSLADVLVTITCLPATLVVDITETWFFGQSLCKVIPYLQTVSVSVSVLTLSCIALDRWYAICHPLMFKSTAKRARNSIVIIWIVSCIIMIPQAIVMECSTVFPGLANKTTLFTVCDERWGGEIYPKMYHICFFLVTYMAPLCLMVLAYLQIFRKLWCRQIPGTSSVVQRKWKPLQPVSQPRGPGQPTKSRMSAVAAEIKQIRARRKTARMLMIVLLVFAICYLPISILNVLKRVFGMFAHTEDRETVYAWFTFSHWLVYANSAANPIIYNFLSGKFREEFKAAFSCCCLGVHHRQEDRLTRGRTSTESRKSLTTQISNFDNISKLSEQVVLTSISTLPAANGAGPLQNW
- assay-notes: Measurement of orexin type 2 receptor agonist activity (FLIPR calcium fluorescence)
- Assay type: cell-based
- run-parameters: CHO, CHO cells expressing hOX2R, FLIPR calcium fluorescence; read-out: hOx2 Emax (%)
- Procedure: The biological activity of the compounds of the present disclosure may be determined in cells stably expressing either orexin type 2 or orexin type 1 receptor. […] The agonist activity of a compound of the present disclosure may be determined by fluorescence value. Stable cell line generation. Measurement of orexin type 2 receptor agonist activity. […] As used herein, E. indicates the value at 10 μM concentration when orexin A is converted to a full agonist (maximum value of agonist activity. 100%).
endpoint: Emax

Please review the entries below; each comes with its answer.
[
  {
    "molecule": "C[C@H](F)C(=O)N1CC2(CC2)[C@H](NS(=O)(=O)CF)[C@@H]1Cc1cc(F)cc(-c2cccc(F)c2)c1F",
    "system-under-test": "human orexin type 2 receptor (hOX2R) (Homo sapiens, UniProt O43614)",
    "Emax": "90 to 100%"
  },
  {
    "molecule": "CC(C)S(=O)(=O)N[C@@H]1[C@H](Cc2cccc(-c3ccccc3)c2F)N(C(=O)[C@H]2CCO2)CC12CC2",
    "system-under-test": "human orexin type 2 receptor (hOX2R) (Homo sapiens, UniProt O43614)",
    "Emax": "90 to 100%"
  },
  {
    "molecule": "CC(C)(O)C(=O)N1CC2(CC2)[C@H](NS(=O)(=O)CF)[C@@H]1Cc1cccc(-c2ccccc2)c1F",
    "system-under-test": "human orexin type 2 receptor (hOX2R) (Homo sapiens, UniProt O43614)",
    "Emax": "90 to 100%"
  }
]

Give measured Emax for every item shown.
1. O=C(NCC1(F)CC1)N1CC2(CC2)[C@H](NS(=O)(=O)CF)[C@@H]1Cc1cc(F)cc(-c2cc(F)cc(F)c2)c1F
2. O=C([C@H]1CCO1)N1CC2(CC2)[C@H](NS(=O)(=O)CF)[C@@H]1Cc1cccc(-c2ccccc2)c1
3. C[C@H](CF)NC(=O)N1CC2(CC2)[C@H](NS(=O)(=O)CF)[C@@H]1Cc1cc(F)cc(-c2ccccc2)c1F
4. CS(=O)(=O)NC1C(Cc2cccc(-c3ccccc3)c2)N(C(=O)C(F)(F)F)CC12CC2 (racemic)

1: 90 to 100%; 2: 80 to 90%; 3: 90 to 100%; 4: 60 to 70%

* * *

Answer each item with its documented EC50.
- system-under-test: human orexin type 2 receptor (hOX2R) (Homo sapiens, UniProt O43614)
- Construct: expressed in transfected cells
- assay-notes: Measurement of orexin type 2 receptor agonist activity (FLIPR calcium fluorescence)
- Format: cell-based
- run-parameters: CHO cells expressing hOX2R, FLIPR calcium fluorescence; read-out: hOx2 pEC50 (converted)
- Procedure: The biological activity of the compounds of the present disclosure may be determined in cells stably expressing either orexin type 2 or orexin type 1 receptor. […] The agonist activity of a compound of the present disclosure may be determined by fluorescence value. Stable cell line generation. Measurement of orexin type 2 receptor agonist activity. […] As used herein, E. indicates the value at 10 μM concentration when orexin A is converted to a full agonist (maximum value of agonist activity. 100%).

[
  {
    "compound": "CC(C)(C)C(=O)N1CC2(CC2)C(NS(C)(=O)=O)C1Cc1cccc(-c2cccc(F)c2)c1F (racemic)",
    "endpoint": "EC50",
    "measurement": "10 to 100 nM"
  }
]

Parameters: items (list). Returns: EC50 for each item.
1. CS(=O)(=O)N[C@@H]1[C@H](Cc2cccc(-c3cc(F)cc(F)c3)c2F)N(C(=O)[C@H]2CCO2)CC12CC2
2. CS(=O)(=O)N[C@@H]1[C@H](Cc2cccc(-c3ccccc3)c2)N(C(=O)[C@H]2C[C@@H](F)C2)CC12CC2 (racemic)
3. O=C([C@H]1CCO1)N1CC2(CC2)[C@H](NS(=O)(=O)C(F)F)[C@@H]1Cc1cccc(-c2ccccc2)c1
4. CS(=O)(=O)N[C@H]1[C@@H](Cc2cccc(-c3ccccc3)c2F)N(C(=O)[C@H]2CCO2)CC12CC2
5. O=C([C@H]1CCO1)N1CC2(CC2)[C@H](NS(=O)(=O)C(F)F)[C@@H]1Cc1cc(F)cc(-c2cc(F)cc(F)c2)c1F

1 to 10 nM
10 to 100 nM
1 to 10 nM
100 to 1000 nM
1 to 10 nM
